Experiment: Fluorescence titration of labeled ParM with ATP
Assay type: binding
Details: Table 2; highly purified ATP containing only 0.03% ADP, 20° C.
pKd: −log10 of the molar value.
The label depends only on pKd: met if it is at least 4, not met if it is smaller.

• T175L: MDCC-ParM (His6/I27C/T175L/C287A) (conjugate, UniProt P11904 1-320, looked up, variant I27C T175L C287A, MDCC label; His6 tag) Plasmid segregation protein …: MLVFIDDGSTNIKLQWQESDGTIKQHCSPNSFKREWAVSFGDKKVFNYTLNGEQYSFDPISPDAVVTTNIAWQYSDVNVVAVHHALLTSGLPVSEVDIVCTLPLTEYYDRNNQPNTENIERKKANFRKKITLNGGDTFTIKDVKVMPESIPAGYEVLQELDELDSLLIIDLGGTLLDISQVMGKLSGISKIYGDSSLGVSLVTSAVKDALSLARTKGSSYLADDIIIHRKDNNYLKQRINDENKISIVTEAMNEALRKLEQRVLNTLNEFSGYTHVMVIGGGAELIADAVKKHTQIRDERFFKTNNSQYDLVNGMYLIGN = not met
• S9Q: MDCC-ParM (His6/S9Q/I27C/C287A) (conjugate, UniProt P11904 1-320, looked up, variant S9Q I27C C287A, MDCC label; His6 tag) Plasmid segregation protein …: MLVFIDDGQTNIKLQWQESDGTIKQHCSPNSFKREWAVSFGDKKVFNYTLNGEQYSFDPISPDAVVTTNIAWQYSDVNVVAVHHALLTSGLPVSEVDIVCTLPLTEYYDRNNQPNTENIERKKANFRKKITLNGGDTFTIKDVKVMPESIPAGYEVLQELDELDSLLIIDLGGTTLDISQVMGKLSGISKIYGDSSLGVSLVTSAVKDALSLARTKGSSYLADDIIIHRKDNNYLKQRINDENKISIVTEAMNEALRKLEQRVLNTLNEFSGYTHVMVIGGGAELIADAVKKHTQIRDERFFKTNNSQYDLVNGMYLIGN = met
• T175H: MDCC-ParM (His6/I27C/T175H/C287A) (conjugate, UniProt P11904 1-320, looked up, variant I27C T175H C287A, MDCC label; His6 tag) Plasmid segregation protein …: MLVFIDDGSTNIKLQWQESDGTIKQHCSPNSFKREWAVSFGDKKVFNYTLNGEQYSFDPISPDAVVTTNIAWQYSDVNVVAVHHALLTSGLPVSEVDIVCTLPLTEYYDRNNQPNTENIERKKANFRKKITLNGGDTFTIKDVKVMPESIPAGYEVLQELDELDSLLIIDLGGTHLDISQVMGKLSGISKIYGDSSLGVSLVTSAVKDALSLARTKGSSYLADDIIIHRKDNNYLKQRINDENKISIVTEAMNEALRKLEQRVLNTLNEFSGYTHVMVIGGGAELIADAVKKHTQIRDERFFKTNNSQYDLVNGMYLIGN = met
• T175A: MDCC-ParM (His6/I27C/T175A/C287A) (conjugate, UniProt P11904 1-320, looked up, variant I27C T175A C287A, MDCC label; His6 tag) Plasmid segregation protein …: MLVFIDDGSTNIKLQWQESDGTIKQHCSPNSFKREWAVSFGDKKVFNYTLNGEQYSFDPISPDAVVTTNIAWQYSDVNVVAVHHALLTSGLPVSEVDIVCTLPLTEYYDRNNQPNTENIERKKANFRKKITLNGGDTFTIKDVKVMPESIPAGYEVLQELDELDSLLIIDLGGTALDISQVMGKLSGISKIYGDSSLGVSLVTSAVKDALSLARTKGSSYLADDIIIHRKDNNYLKQRINDENKISIVTEAMNEALRKLEQRVLNTLNEFSGYTHVMVIGGGAELIADAVKKHTQIRDERFFKTNNSQYDLVNGMYLIGN = met
